Data credit: PubChem BioAssay (NCI)

- Test system: NCI/ADR-RES ovarian
- measurement.protocol: NCI tumour cell line growth inhibition, 48 h
Think of 9 µM as a floor: if TGI stands on it or above, it is Yes; beneath it, No.

molecule	classification
Cc1ccc(Cc2cc(N3CCN(c4cccc(Cl)c4)CC3)nnc2C)cc1	Yes
CN(C)Cc1c(O)ccc2c1c1c(n2C)C(=O)c2ccccc2C1=O	Yes
COc1ccc(-n2c(SC(CN3CCOCC3)CN3CCCC3=O)nc3ccccc3c2=O)cc1 (stereo unspecified)	Yes
CN(C)C1CCN(Cc2ccc(NC(=O)c3cncc(C#Cc4cnc(N)c5ncccc45)c3)cc2C(F)(F)F)CC1	No
O=c1[nH]c2ccccc2c(O)c1Cc1ccccc1	Yes

Given `CCCCCCCCCCCCCC[n+]1ccccc1` , state whether its TGI is at least 9 µM.
Yes

Given `COc1cc(CC(C)=O)cc(OC)c1` , state whether its TGI is at least 9 µM.
Yes

Given `O=C([O][Hg][c]1ccccc1)c1ccccc1` , state whether its TGI is at least 9 µM.
Yes

Given `Fc1cc(F)c(F)c(S)c1F` , state whether its TGI is at least 9 µM.
Yes

Given `O=c1c2c3c(sc2nc2n1N=CN(c1ccccc1)C2)CCCC3` , state whether its TGI is at least 9 µM.
Yes

Given `O=C(c1ccccc1)N1CCN(C(=S)NC2CCCCC2)C1=S` , state whether its TGI is at least 9 µM.
Yes

Given `O=C1c2cc(I)ccc2N2CCN=C2N1Cc1ccccc1` , state whether its TGI is at least 9 µM.
Yes

Given `COc1ccccc1NC(=S)N=Nc1c(O)[nH]c2ccccc12` , state whether its TGI is at least 9 µM.
Yes

Given `Cc1c(C(=O)O)n2c(=S)[nH]nc2c2ccccc12` , state whether its TGI is at least 9 µM.
Yes

Given `COc1ccc2nc3c([N+](=O)[O-])ccc(NCCN(C)C)c3c(N)c2c1` , state whether its TGI is at least 9 µM.
No

Given Oc1c(C(Nc2ccccn2)c2cccc(Oc3ccccc3)c2)ccc2cccnc12 (stereo unspecified) , state whether its TGI is at least 9 µM.
Yes

Given `C[C@@]1(CCCCCCCCCCc2ccccc2)C[C@@]2(C)OC(=O)C[C@H]2OO1` , state whether its TGI is at least 9 µM.
Yes

Given `Cc1cc2c(c(C(=O)NCC(=O)N[C@@H](C)C(=O)OCc3ccccc3)c1)Oc1c(cc(C)cc1C(=O)NCC(=O)N[C@@H](C)C(=O)OCc1ccccc1)S2` , state whether its TGI is at least 9 µM.
Yes

Given `CN1CCN(Cc2ccc(NC(=O)c3cncc(C#Cc4c(N)ncc5ccc(C#N)cc45)c3)cc2C(F)(F)F)CC1` , state whether its TGI is at least 9 µM.
No

Given `Oc1c(CN2CCCC2)ccc2cccnc12` , state whether its TGI is at least 9 µM.
No

Given `CC(C)(C)NC1=NC(C(F)(F)F)(C(F)(F)F)NC(=O)N1` , state whether its TGI is at least 9 µM.
Yes

Given `C[C@@H](N)COc1ccc(-c2cnc3ccc(N[C@H](C)c4cccc(F)c4)nn23)cc1` , state whether its TGI is at least 9 µM.
No

----------
Collected TGI values appear next to each entry.
- Tested on: HS 578T breast
- measurement.protocol: NCI tumour cell line growth inhibition, 48 h

Check out these entries, answers already filled in.
compound	result
Oc1c(C(Nc2ccccn2)c2cccc(Oc3ccccc3)c2)ccc2cccnc12 (stereo unspecified)	> 100 µM
CSc1cc(Cl)c(C)cc1S(=O)(=O)NC(=O)NNc1ccc(F)cc1	> 100 µM
CC(C)NC(=O)OCc1c(COC(=O)NC(C)C)c(-c2ccc[n+](COC(=O)Cc3ccccc3)c2)n2c1CCC2	> 100 µM

Turning now to a further record.
Input `O=C1c2ccccc2C(=O)N1n1c(Cc2ccc(Cl)cc2)n[nH]c1=O` . Output TGI: > 100 µM
